Assayed target: mGlu3 (Rattus norvegicus (Rat), UniProt P31422)
Sequence (P31422 23-879): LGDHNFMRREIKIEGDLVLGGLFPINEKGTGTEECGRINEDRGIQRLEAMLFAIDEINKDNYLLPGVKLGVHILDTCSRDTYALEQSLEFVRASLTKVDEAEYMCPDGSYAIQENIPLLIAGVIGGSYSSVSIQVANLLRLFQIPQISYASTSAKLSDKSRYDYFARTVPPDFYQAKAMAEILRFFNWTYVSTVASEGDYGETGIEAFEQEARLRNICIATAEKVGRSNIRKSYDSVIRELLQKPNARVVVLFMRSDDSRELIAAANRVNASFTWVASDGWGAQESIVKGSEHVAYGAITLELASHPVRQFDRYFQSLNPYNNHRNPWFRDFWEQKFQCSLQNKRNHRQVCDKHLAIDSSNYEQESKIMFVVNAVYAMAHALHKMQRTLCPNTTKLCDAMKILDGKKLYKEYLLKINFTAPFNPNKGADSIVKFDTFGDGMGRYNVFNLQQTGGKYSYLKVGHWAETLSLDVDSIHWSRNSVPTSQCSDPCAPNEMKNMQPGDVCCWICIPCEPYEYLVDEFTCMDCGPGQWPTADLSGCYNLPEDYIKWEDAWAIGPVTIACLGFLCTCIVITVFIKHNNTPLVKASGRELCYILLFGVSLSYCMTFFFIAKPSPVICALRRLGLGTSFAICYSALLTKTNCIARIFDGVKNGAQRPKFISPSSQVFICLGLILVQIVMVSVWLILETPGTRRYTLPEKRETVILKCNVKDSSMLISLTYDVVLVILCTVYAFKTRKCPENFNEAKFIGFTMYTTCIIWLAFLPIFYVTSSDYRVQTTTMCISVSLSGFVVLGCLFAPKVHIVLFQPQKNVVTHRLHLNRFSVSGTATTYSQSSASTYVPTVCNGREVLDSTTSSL
Assay text: mGlu3 GIRK thallium flux assay
Condition set: read-out: mGlu3 PAM Max
Measurement type: Emax (%)

- Smiles string: "Cc1c(OCc2cccc(-c3occc3C(=O)O)c2)ccc(C(=O)CC(C)(C)C)c1O"
  Measurement: 67.7
- Smiles string: "COc1ccc(C(=O)NC(C)(C)C)cc1OCCCCOc1ccc(C(=O)CC(C)(C)C)c(O)c1C"
  Measurement: 33.4
- Smiles string: "Cc1c(OCc2nnc(-c3cccc(C(=O)O)c3)s2)ccc(C(=O)CC(C)(C)C)c1O"
  Measurement: 95
- Smiles string: "Cc1c(OCc2cc(-c3cccc(C(=O)O)c3)ccn2)ccc(C(=O)CC(C)(C)C)c1O"
  Measurement: 107
- Smiles string: "COc1ccc(C#N)cc1OCCCCOc1ccc(C(=O)CC(C)(C)C)c(O)c1C"
  Measurement: 33.7
- Smiles string: "CNC(=O)c1ccc(OC)c(OCCCCOc2ccc(C(=O)CC(C)(C)C)c(O)c2C)c1"
  Measurement: 39.2
- Smiles string: "COc1ccc(-c2cccc(COc3ccc(C(=O)CC(C)(C)C)c(O)c3C)c2)cc1C(=O)O"
  Measurement: 67.2
- Smiles string: "COc1ccc(C(=O)NS(=O)(=O)c2ccccc2)cc1OCCCCOc1ccc(C(=O)CC(C)(C)C)c(O)c1C"
  Measurement: 109
- Smiles string: "Cc1c(OCc2cnc(-c3cccc(C(=O)O)c3)cn2)ccc(C(=O)CC(C)(C)C)c1O"
  Measurement: 113
- Smiles string: "Cc1c(OCc2cccc(-c3ccc(C(=O)O)cc3Cl)c2)ccc(C(=O)CC(C)(C)C)c1O"
  Measurement: 81.4

====

The reader will find reported pEC50 values listed item by item below.
Assayed target: mGlu2 (Rattus norvegicus (Rat), UniProt P31421)
Sequence (P31421 19-872): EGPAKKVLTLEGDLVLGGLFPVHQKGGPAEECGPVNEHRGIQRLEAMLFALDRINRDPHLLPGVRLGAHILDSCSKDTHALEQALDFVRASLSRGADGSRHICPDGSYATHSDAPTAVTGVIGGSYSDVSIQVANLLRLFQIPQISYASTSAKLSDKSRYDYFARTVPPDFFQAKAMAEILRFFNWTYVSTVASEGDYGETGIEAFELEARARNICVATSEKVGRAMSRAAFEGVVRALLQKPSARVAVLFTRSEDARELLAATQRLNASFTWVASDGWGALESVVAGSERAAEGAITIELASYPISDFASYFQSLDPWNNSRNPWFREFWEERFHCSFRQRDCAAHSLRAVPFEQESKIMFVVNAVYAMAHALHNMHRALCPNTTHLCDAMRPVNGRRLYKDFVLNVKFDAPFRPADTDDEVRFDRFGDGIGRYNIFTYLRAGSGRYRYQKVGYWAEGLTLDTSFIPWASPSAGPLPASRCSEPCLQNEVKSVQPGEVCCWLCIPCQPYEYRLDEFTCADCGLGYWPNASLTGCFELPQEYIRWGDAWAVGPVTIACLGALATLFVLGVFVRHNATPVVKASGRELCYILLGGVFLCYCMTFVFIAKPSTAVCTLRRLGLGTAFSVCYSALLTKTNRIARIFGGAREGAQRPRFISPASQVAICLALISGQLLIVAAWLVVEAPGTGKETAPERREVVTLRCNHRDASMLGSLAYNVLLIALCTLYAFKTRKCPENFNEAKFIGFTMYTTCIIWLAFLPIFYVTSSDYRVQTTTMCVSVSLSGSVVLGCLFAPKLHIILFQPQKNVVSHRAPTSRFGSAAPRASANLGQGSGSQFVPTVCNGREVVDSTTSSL
Assay text: mGlu2 GIRK thallium flux assay
Condition set: read-out: mGlu2 PAM EC50; PAM mode; test compound, then EC20 glutamate […] later in the presence of thallium; mean ± SEM, at least three experiments
pEC50: −log10 of the molar value.

- Compound: "Cc1c(OCCCCOc2ccc(F)c(C(=O)O)c2)ccc(C(=O)CC(C)C)c1C [Compound 34]"
  Assayed target: "mGlu2 (Rattus norvegicus (Rat), UniProt P31421)"
  pEC50: "< 4.52"
- Compound: "Cc1c(OCc2cccc(-c3cccc(C#N)c3)c2)ccc(C(=O)CC(C)(C)C)c1O [compound 151]"
  Assayed target: "mGlu2 (Rattus norvegicus (Rat), UniProt P31421)"
  pEC50: "< 5.00"
- Compound: "Cc1c(OCc2cccc(COc3ccc(C#N)cc3)c2)ccc(C(=O)CC(C)C)c1O [compound 118]"
  Assayed target: "mGlu2 (Rattus norvegicus (Rat), UniProt P31421)"
  pEC50: "< 4.52"

====

Assayed target: mGlu2 (Rattus norvegicus (Rat))
Assay text: mGlu2 GIRK thallium flux assay
Condition set: read-out: mGlu2 PAM EC50; PAM mode; test compound, then EC20 glutamate […] later in the presence of thallium; mean ± SEM, at least three experiments
The reader will find reported EC50 values listed item by item below.
Measurement type: EC50

- Smiles string: "COC(=O)CCc1cc(OCCCCOc2ccc(C(=O)CC(C)C)c(O)c2C)ccc1O"
  Measurement: "> 10 µM"
- Smiles string: "COc1ccc(C#N)cc1OCCCCOc1ccc(C(=O)CC(C)(C)C)c(O)c1C"
  Measurement: "> 10 µM"
- Smiles string: "Cc1c(OCCCCOc2ccc(C#N)cc2)ccc(C(=O)CC2CCCC2)c1C"
  Measurement: "> 30 µM"

====

Assayed target: mGlu2 (Rattus norvegicus (Rat), UniProt P31421)
Assay text: mGlu2 GIRK thallium flux assay
Condition set: read-out: mGlu2 PAM EC50; PAM mode; test compound, then EC20 glutamate […] later in the presence of thallium; mean ± SEM, at least three experiments

- Compound: "Cc1c(OCc2cccc(-c3cncc(C(=O)O)c3)c2)ccc(C(=O)CC(C)(C)C)c1O [Compound 179]"
  EC50: "848 nM"
- Compound: "COC(=O)c1ccc(OCc2cccc(COc3ccc(C(=O)CC(C)C)c(C)c3C)c2)cc1 [compound 116]"
  EC50: "> 30000 nM"
- Compound: "Cc1c(OCc2cccc(-c3ccc(C(=O)O)c(Cl)c3)c2)ccc(C(=O)CC(C)(C)C)c1O [compound 141]"
  EC50: "391 nM"
- Compound: "CNC(=O)c1ccc(OC)c(OCCCCOc2ccc(C(=O)CC(C)(C)C)c(O)c2C)c1 [compound 102]"
  EC50: "5160 nM"
- Compound: "Cc1c(OCc2cccc(-c3ccc(C(=O)O)cc3)c2)ccc(C(=O)CC(C)(C)C)c1O [compound 132]"
  EC50: "561 nM"

====

Assayed target: mGlu3 (Rattus norvegicus (Rat), UniProt P31422)
Assay text: mGlu3 GIRK thallium flux assay;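 also: kinetic fluorescence slope read shortly after thallium plus agonist addition, scaled between vehicle and maximal agonist control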
Condition set: read-out: mGlu3 PAM EC50; PAM mode; test compound, then EC20 glutamate […] later in the presence of thallium; mean ± SEM
The reader will find reported EC50 values listed item by item below.

- Smiles string: "COc1ccc(C(=O)NC2CC2)cc1OCCCCOc1ccc(C(=O)CC(C)(C)C)c(O)c1C"
  EC50: "0.578 µM"
- Smiles string: "COc1ccc(C(=O)NCC(C)C)cc1OCCCCOc1ccc(C(=O)CC(C)(C)C)c(O)c1C"
  EC50: "> 30 µM"
- Smiles string: "COC(=O)c1ccc(OCCCCOc2ccc(C(=O)CC3CCCC3)c(O)c2C)cc1"
  EC50: "> 30 µM"
- Smiles string: "CNC(=O)c1ccc(OC)c(OCCCCOc2ccc(C(=O)CC(C)(C)C)c(O)c2C)c1"
  EC50: "> 10 µM"
- Smiles string: "Cc1c(OCc2cccc(-c3cccc(C#N)c3)c2)ccc(C(=O)CC(C)(C)C)c1O"
  EC50: "> 10 µM"
- Smiles string: "Cc1c(OCc2ccnc(-c3cccc(C(=O)O)c3)c2)ccc(C(=O)CC(C)(C)C)c1O"
  EC50: "0.203 µM"
- Smiles string: "Cc1c(OCc2cccc(-c3cccc(C(=O)O)c3)c2)ccc(C(=O)C(C)C)c1O"
  EC50: "1.75 µM"
- Smiles string: "Cc1c(OCCCCOc2ccccn2)ccc(C(=O)CC2CCCC2)c1O"
  EC50: "> 30 µM"
- Smiles string: "Cc1c(OCc2cccc(COc3ccc(C(=O)O)cc3)c2)ccc(C(=O)CC(C)C)c1C"
  EC50: "> 30 µM"
- Smiles string: "Cc1c(OCCCCOc2ccc(CCC(=O)O)c(O)c2)ccc(C(=O)CC(C)C)c1C"
  EC50: "> 30 µM"
- Smiles string: "CCC(=O)c1ccc(OCCCCOc2cccc(C(=O)O)c2C)c(C)c1O"
  EC50: "> 30 µM"

====

Assayed target: mGlu2 (Rattus norvegicus (Rat), UniProt P31421)
Assay text: mGlu2 GIRK thallium flux assay
Condition set: read-out: mGlu2 PAM EC50; PAM mode; test compound, then EC20 glutamate […] later in the presence of thallium; mean ± SEM, at least three experiments
pEC50: −log10 of the molar value.

- Smiles string: "COC(=O)c1ccc(OCCCCOc2ccc(C(=O)CC(C)C)c(C)c2C)cc1"
  pEC50: "< 4.52"
- Smiles string: "COc1ccc(C(=O)N2CCNCC2)cc1OCCCCOc1ccc(C(=O)CC(C)(C)C)c(O)c1C"
  pEC50: "< 5.00"
- Smiles string: "Cc1c(OCCCCSc2ccncc2)ccc(C(=O)CC2CCCC2)c1C"
  pEC50: "< 4.52"
- Smiles string: "Cc1c(OCc2cccc(COc3ccc(C#N)cc3)c2)ccc(C(=O)CC2CCCC2)c1C"
  pEC50: "< 4.52"
- Smiles string: "Cc1c(OCc2cccc(COc3ccc(C(=O)O)cc3)c2)ccc(C(=O)CC2CCCC2)c1C"
  pEC50: "< 4.52"
- Smiles string: "COc1ccc(C(=O)NC(C)(C)C)cc1OCCCCOc1ccc(C(=O)CC(C)(C)C)c(O)c1C"
  pEC50: "< 5.00"
- Smiles string: "Cc1c(OCCCCOc2ccccn2)ccc(C(=O)CC(C)C)c1C"
  pEC50: "< 5.00"

====

The reader will find reported Emax values listed item by item below.
Assayed target: mGlu3 (Rattus norvegicus (Rat))
Assay text: mGlu3 GIRK thallium flux assay
Condition set: read-out: mGlu3 PAM Max
Measurement type: Emax (%)

- Smiles string: "Cc1c(OCc2cccc(-c3cnccc3C(=O)O)c2)ccc(C(=O)CC(C)(C)C)c1O"
  Scale unit: "%"
  Measurement: 30.6
- Smiles string: "COc1ccc(/C(N)=N/O)cc1OCCCCOc1ccc(C(=O)CC(C)(C)C)c(O)c1C"
  Scale unit: "%"
  Measurement: 24.4
- Smiles string: "COc1ccc(-c2nnn[nH]2)cc1OCCCCOc1ccc(C(=O)CC(C)(C)C)c(O)c1C"
  Scale unit: "%"
  Measurement: 96.7
- Smiles string: "Cc1c(OCc2cccc(-c3cccc(C(=O)O)c3)c2)ccc(C(=O)CC(C)C)c1O"
  Scale unit: "%"
  Measurement: 76.8
- Smiles string: "CC(C)(C)CC(=O)c1ccc(OCc2cccc(-c3cccc(C(=O)O)c3)c2)c(Br)c1O"
  Scale unit: "%"
  Measurement: 74
- Smiles string: "Cc1c(OCc2cccc(-c3cccc(C(=O)O)c3)c2)ccc(C(=O)CC(C)(C)C)c1O"
  Scale unit: "%"
  Measurement: 104
- Smiles string: "Cc1c(OCc2ccnc(-c3cccc(C(=O)O)c3)c2)ccc(C(=O)CC(C)(C)C)c1O"
  Scale unit: "%"
  Measurement: 112
- Smiles string: "Cc1c(OCc2cccc(-c3cccc(-c4nn[nH]n4)c3)c2)ccc(C(=O)CC(C)(C)C)c1O"
  Scale unit: "%"
  Measurement: 98.9
- Smiles string: "Cc1c(OCc2ncc(-c3cccc(C(=O)O)c3)s2)ccc(C(=O)CC(C)(C)C)c1O"
  Scale unit: "%"
  Measurement: 114
- Smiles string: "COc1ccc(C(=O)Nc2ccccc2)cc1OCCCCOc1ccc(C(=O)CC(C)(C)C)c(O)c1C"
  Scale unit: "%"
  Measurement: 27
- Smiles string: "Cc1c(OCc2cc(-c3cccc(C(=O)O)c3)cs2)ccc(C(=O)CC(C)(C)C)c1O"
  Scale unit: "%"
  Measurement: 106
